measurement.description: Plasma protein binding, human plasma
Type: in vitro ADME
protocol.conditions: pH 7.4, read-out: % PPB, H (converted)
Procedure: Plasma protein binding (PPB) for compounds determination for compound (±)-44 in PBS (pH 7.4) was conducted by Eurofins using equilibrium dialysis of plasma with HPLC-UV/Vis detection. The peak areas of the test compound in the buffer and test samples were used to calculate percent binding and recovery according to the following formulas: • Areap=Peak area of analyte in protein matrix • Areab=Peak area of analyte in buffer • Areac=Peak area of analyte in control sample
readout.kind: fraction unbound
Please reply with the value in numeric form only.

Look up fraction unbound for this molecule: Cc1cc(C(=O)O)nc(N2CCC(COc3ccccc3C(F)(F)F)C2)n1 (racemic) [Compound (±)-44]
0.002
